target: Mitogen-activated protein kinase kinase kinase kinase 4 (Homo sapiens); assay: Inhibition of recombinant GST-tagged human MAP4K4 catalytic domain expressed in baculovirus expression system using Ser/Thr 07 peptide as substrate after 1 hr in presence of ATP by Z'-LYTE assay
Sequence (O95819 whole entry, the tested form may be a part): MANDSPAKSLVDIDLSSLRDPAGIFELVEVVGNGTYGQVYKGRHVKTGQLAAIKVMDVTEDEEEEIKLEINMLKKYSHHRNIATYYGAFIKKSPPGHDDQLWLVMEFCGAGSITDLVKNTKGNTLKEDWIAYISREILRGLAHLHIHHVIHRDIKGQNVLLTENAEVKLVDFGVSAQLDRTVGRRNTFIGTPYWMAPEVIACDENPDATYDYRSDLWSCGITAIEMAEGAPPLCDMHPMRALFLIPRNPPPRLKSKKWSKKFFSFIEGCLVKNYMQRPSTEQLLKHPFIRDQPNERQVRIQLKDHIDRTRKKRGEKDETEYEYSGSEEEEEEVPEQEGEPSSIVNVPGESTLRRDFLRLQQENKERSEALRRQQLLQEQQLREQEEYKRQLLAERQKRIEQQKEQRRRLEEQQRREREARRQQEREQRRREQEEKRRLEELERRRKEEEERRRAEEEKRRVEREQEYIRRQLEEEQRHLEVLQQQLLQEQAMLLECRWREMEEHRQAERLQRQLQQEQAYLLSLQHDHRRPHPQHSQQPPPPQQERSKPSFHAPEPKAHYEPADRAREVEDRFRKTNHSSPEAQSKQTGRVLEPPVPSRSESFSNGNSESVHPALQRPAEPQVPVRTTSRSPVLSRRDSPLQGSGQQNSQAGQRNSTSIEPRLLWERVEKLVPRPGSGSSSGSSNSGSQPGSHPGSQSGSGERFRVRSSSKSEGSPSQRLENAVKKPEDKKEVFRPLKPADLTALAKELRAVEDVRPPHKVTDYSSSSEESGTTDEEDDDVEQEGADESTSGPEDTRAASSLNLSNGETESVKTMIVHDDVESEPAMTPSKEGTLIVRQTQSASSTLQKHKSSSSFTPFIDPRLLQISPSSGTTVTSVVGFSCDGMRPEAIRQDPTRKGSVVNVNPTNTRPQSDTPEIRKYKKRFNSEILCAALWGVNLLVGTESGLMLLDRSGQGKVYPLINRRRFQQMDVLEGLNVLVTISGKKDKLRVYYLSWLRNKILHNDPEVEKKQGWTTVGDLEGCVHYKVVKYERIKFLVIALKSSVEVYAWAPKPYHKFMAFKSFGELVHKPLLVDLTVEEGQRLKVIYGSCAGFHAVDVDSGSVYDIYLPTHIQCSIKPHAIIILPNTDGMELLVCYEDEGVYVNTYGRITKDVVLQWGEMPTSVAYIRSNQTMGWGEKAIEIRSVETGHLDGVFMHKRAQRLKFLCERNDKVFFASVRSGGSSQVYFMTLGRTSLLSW
measuredMetric: IC50 (µM)

In [3]: df
Out[3]:
                                 itemsmiles  resultvalue
0  C[C@@H]1C[C@H]1C(=O)N1CCN(c2cnc(C#N)c(-c3cnn(C)c3)n2)C[C@H]1C         26.3

###

test: Distribution coefficient, logD of compound by HPLC analysis; assay type: physicochemical; conditions: octanol/water
measuredMetric: logD

>>> print(df.to_string())
                                    molecule  resultvalue
 0  C[C@@H]1CN(c2nc(-c3cnn(C)c3)ncc2C#N)CCN1C(=O)C1(C)CC1          1.7
 1  Cn1cc(-c2ncc(C#N)c(N3CCN(c4cccc(F)c4)CC3)n2)cn1          3.2
 2  Cn1cc(-c2ncc(C#N)c(N3CC4CCC(C3)N4c3cccc(F)c3)n2)cn1          3.3
 3  C[C@@H]1CN(c2nc(-c3cnn(C)c3)ncc2C#N)CCN1c1cccc(F)c1          3.3
 4  CCC(=O)N1CCN(c2nc(-c3cnn(C)c3)ncc2C#N)C[C@H]1C          1.4
 5  C[C@@H]1CN(c2nc(-c3cnn(C)c3)cnc2C#N)CCN1C(=O)C1CC1          1.9
 6  C[C@@H]1C[C@H]1C(=O)N1CCN(c2nc(-c3cnn(C)c3)ncc2C#N)C[C@H]1C          1.9
 7  C[C@@H]1CN(c2ncc(C#N)c(-c3cnn(C)c3)n2)CCN1C(=O)C1CC1            2
 8  Cn1cc(-c2ncc(C#N)c(N3C[C@@H]4C[C@H]3CN4C(=O)C3CC3)n2)cn1          1.1
 9  C[C@@H]1C[C@H]1C(=O)N1CCN(c2cnc(C#N)c(-c3cnn(C)c3)n2)C[C@H]1C          1.6
10  N#Cc1cnc(N2Cc3cn[nH]c3C2)nc1N1C[C@@H]2C[C@H]1CN2c1cccc(F)c1          2.9
11  CCNC(=O)N1C[C@@H]2C[C@H]1CN2c1nc(-c2cnn(C)c2)ncc1C#N          0.8
12  CC1CC1C(=O)N1CCN(c2nc(-c3cnn(C)c3)ncc2C#N)C[C@H]1C (mixture of isomers)            2
13  Cn1cc(-c2ncc(C#N)c(N3C[C@@H]4C[C@H]3CN4CC3CC3)n2)cn1          1.5
14  N#Cc1cnc(-c2ccnc3[nH]ccc23)nc1N1C[C@@H]2C[C@H]1CN2c1cccc(F)c1          3.4
15  Cn1cc(-c2ncc(C#N)c(N3C[C@@H]4C[C@H]3CN4c3cccc(F)c3)n2)cn1          3.1
16  N#Cc1cnc(-c2cccnc2)nc1N1C[C@@H]2C[C@H]1CN2c1cccc(F)c1         3.43
17  C[C@@H]1CN(c2nc(-c3cnn(C)c3)ncc2C#N)CCN1C(=O)C1CCC1            2
18  C[C@@H]1CN(c2nc(-c3cnn(C)c3)ncc2C#N)CCN1C(=O)C1CC1          1.5
19  Cn1cc(-c2ncc(C#N)c(N3C[C@@H]4C[C@H]3CN4S(=O)(=O)C3CC3)n2)cn1          1.6
20  N#Cc1cnc(-c2cccnc2)nc1N1C[C@@H]2C[C@H]1CN2c1cccc(Cl)c1         3.82
21  N#Cc1cnc(-c2ccccc2)nc1N1C[C@@H]2C[C@H]1CN2c1cccc(F)c1          4.5
22  C[C@@H]1CN(c2cnc(C#N)c(-c3cnn(C)c3)n2)CCN1C(=O)C1CC1          1.8
23  Cn1cc(-c2ncc(C#N)c(N3CCN(c4cccc(F)c4)C(C)(C)C3)n2)cn1          3.6

###

Biological target: Tyrosine-protein kinase Mer (Homo sapiens, UniProt Q12866)
Sequence (Q12866 whole entry): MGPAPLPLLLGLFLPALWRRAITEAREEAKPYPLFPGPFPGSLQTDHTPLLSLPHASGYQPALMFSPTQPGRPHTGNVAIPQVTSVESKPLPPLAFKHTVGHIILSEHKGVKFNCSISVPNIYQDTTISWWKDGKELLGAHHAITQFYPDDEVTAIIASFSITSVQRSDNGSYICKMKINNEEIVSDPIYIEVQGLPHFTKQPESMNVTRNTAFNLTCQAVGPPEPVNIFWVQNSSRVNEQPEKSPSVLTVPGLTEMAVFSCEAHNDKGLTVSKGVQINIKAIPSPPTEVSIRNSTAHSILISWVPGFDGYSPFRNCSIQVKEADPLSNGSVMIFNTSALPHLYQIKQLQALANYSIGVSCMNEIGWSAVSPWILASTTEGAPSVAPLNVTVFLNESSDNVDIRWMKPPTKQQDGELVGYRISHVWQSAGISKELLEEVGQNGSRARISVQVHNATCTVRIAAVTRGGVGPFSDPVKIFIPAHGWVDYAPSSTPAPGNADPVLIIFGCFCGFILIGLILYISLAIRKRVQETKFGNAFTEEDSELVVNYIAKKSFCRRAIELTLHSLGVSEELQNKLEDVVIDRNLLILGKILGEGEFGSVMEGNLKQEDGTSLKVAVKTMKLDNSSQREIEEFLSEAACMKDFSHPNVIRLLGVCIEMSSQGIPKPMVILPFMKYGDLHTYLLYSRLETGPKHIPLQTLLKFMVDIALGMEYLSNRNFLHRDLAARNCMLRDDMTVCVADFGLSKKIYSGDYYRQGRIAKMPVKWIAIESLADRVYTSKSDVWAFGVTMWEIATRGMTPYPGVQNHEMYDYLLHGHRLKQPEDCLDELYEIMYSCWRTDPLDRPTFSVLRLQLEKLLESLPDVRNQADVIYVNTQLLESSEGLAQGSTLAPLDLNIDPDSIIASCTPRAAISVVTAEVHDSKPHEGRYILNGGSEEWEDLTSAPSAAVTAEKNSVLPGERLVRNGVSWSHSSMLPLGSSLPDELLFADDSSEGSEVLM
Experiment: Inhibition of recombinant human GST-tagged MER (578 to 872 residues) expressed in baculovirus expression system using tyrosine-2 peptide as substrate incubated for 60 mins in presence of ATP by Z'-LYTE assay
measuredMetric: IC50

In [3]: df
Out[3]:
                                 itemsmiles  measuredmetric  resultvalue
0  C[C@@H]1C[C@H]1C(=O)N1CCN(c2cnc(C#N)c(-c3cnn(C)c3)n2)C[C@H]1C            IC50     > 100 µM

###

target: Tyrosine-protein kinase JAK2 (Homo sapiens); assay: Inhibition of recombinant GST-tagged human JAK2-JH1/JH2 domain (574 to 1154 residues) expressed in baculovirus expression system using Tyr 06 as substrate after 1 hr in presence of ATP by Z'LYTE assay
Sequence (O60674 whole entry, the tested form may be a part): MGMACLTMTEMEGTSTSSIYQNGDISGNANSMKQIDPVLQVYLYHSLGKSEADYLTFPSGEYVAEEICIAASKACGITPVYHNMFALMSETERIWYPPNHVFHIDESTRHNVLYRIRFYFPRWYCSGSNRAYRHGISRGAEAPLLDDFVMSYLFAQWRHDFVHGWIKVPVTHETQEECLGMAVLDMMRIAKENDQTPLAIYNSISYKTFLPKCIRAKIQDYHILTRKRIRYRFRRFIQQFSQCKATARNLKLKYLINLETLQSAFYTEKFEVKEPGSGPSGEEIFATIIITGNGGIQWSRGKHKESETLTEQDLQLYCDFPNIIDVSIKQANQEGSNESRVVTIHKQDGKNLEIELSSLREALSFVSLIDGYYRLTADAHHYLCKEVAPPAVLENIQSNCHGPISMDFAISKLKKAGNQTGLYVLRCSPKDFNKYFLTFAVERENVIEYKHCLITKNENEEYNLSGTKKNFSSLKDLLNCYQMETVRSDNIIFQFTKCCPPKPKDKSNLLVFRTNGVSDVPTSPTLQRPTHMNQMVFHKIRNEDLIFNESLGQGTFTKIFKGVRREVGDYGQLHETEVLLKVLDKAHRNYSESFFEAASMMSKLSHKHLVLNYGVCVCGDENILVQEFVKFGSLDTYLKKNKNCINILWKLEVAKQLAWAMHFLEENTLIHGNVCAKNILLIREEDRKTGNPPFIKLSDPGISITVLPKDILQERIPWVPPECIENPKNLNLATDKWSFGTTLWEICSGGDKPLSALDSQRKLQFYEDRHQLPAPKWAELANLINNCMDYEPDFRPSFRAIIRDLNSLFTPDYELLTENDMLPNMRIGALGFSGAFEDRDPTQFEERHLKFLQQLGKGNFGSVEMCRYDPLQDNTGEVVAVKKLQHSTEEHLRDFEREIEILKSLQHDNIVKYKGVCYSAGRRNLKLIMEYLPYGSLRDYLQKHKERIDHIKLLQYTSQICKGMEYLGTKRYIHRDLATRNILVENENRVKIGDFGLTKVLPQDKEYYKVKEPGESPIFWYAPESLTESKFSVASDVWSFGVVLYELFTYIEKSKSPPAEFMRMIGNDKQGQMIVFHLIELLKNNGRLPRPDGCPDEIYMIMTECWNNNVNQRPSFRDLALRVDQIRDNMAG
pIC50: −log10 of the molar value.
measuredMetric: pIC50

In [3]: df
Out[3]:
                                 itemsmiles                                testsystem  resultvalue
0  C[C@@H]1C[C@H]1C(=O)N1CCN(c2cnc(C#N)c(-c3cnn(C)c3)n2)C[C@H]1C  Tyrosine-protein kinase JAK2 (Homo sapiens)       < 4.00

###

target: UniProtKB P08069; assay: Inhibition of recombinant human His-tagged IGF1R expressed in baculovirus expression system using tyrosine 1 peptide as substrate incubated for 60 mins in presence of ATP by Z'-LYTE assay
Sequence (P08069 31-736 limits assumed): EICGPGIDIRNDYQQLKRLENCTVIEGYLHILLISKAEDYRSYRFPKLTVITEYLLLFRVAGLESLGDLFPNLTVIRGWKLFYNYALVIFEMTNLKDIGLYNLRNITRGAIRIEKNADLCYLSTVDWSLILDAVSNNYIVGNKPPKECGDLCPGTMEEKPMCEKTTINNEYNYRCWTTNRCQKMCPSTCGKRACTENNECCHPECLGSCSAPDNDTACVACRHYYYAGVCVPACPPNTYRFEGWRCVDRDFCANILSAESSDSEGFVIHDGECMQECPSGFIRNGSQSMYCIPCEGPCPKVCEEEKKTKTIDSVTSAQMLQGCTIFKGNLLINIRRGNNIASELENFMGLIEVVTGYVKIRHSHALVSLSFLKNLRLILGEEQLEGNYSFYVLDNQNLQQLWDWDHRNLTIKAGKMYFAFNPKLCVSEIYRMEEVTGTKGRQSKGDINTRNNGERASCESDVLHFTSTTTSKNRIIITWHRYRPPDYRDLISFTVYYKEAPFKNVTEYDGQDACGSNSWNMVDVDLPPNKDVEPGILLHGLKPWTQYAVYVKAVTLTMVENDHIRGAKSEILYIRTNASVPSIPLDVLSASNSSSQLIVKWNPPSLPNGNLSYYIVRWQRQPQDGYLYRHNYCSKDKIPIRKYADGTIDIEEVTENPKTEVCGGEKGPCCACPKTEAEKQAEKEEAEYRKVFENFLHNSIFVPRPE
Sequence (P08069 741-1367 limits assumed): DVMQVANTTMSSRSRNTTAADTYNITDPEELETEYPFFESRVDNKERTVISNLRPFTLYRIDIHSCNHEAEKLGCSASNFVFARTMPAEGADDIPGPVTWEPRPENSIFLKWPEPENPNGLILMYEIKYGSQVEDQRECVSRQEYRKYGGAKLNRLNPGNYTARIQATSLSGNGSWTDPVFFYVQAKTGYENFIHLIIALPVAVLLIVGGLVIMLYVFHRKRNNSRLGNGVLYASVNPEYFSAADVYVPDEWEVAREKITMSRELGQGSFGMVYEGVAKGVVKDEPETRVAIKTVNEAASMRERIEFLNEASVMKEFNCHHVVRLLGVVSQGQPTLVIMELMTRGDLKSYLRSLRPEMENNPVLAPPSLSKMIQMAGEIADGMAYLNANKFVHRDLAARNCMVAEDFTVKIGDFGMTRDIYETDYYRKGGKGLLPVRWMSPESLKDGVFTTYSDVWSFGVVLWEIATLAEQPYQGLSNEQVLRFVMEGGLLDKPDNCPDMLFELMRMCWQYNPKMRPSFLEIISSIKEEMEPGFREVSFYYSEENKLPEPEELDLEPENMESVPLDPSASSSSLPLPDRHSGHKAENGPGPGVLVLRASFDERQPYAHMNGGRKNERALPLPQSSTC
pIC50: −log10 of the molar value.
measuredMetric: pIC50

>>> print(df.to_string())
                                 itemsmiles  measuredmetric  resultvalue
0  C[C@@H]1C[C@H]1C(=O)N1CCN(c2cnc(C#N)c(-c3cnn(C)c3)n2)C[C@H]1C           pIC50       < 4.00

###

target: Phosphatidylinositol 4-phosphate 3-kinase C2 domain-containing subunit alpha (Homo sapiens); test: Inhibition of recombinant full length human N-terminal GST-tagged PIK3C2alpha catalytic domain expressed in baculovirus expression system using PI lipid as substrate incubated for 60 mins in presence of ATP by Adapta assay
measuredMetric: IC50

>>> df
                                 itemsmiles  resultvalue
0  C[C@@H]1C[C@H]1C(=O)N1CCN(c2cnc(C#N)c(-c3cnn(C)c3)n2)C[C@H]1C     > 100 µM

###

molecular target: Tyrosine-protein kinase SYK (Homo sapiens, UniProt P43405); assay: Inhibition of recombinant full length human GST-tagged SYK expressed in baculovirus expression system using tyrosine-2 peptide as substrate incubated for 60 mins in presence of ATP by Z'-LYTE assay
measuredMetric: IC50

>>> print(df.to_string())
                                 itemsmiles  measuredmetric  resultvalue
0  C[C@@H]1C[C@H]1C(=O)N1CCN(c2cnc(C#N)c(-c3cnn(C)c3)n2)C[C@H]1C            IC50     > 100 µM
